TARGET SYSTEM: T1, isoform 165 of human VEGF-A (Peprotech) (human, UniProt P15692-4 27-191)
T1 construct: also called human VEGF165; VEGF 165
T1 sequence (P15692 other isoform, or with tags, fused parts or gaps limits assumed): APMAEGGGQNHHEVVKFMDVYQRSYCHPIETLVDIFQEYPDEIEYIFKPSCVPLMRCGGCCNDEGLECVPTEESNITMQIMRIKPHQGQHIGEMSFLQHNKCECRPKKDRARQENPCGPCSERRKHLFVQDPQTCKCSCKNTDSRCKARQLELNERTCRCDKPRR
EXPERIMENT DESCRIPTION: SPR, BIAcore-X; VEGF 165 coupled to CM5 chip; scFv injected; Langmuir 1:1
METRIC: pKd
pKd here is simply -log10 of the concentration when that concentration is written in mol/L.

Problem: Give me measured pKd, please, for this binder: scFv L3H7 antibody fragment (scFv, soluble, from E. coli) scFv: QQVQLVQSGAEVKKPGESLKISCKGSGYSFTSYWIGWVRQMPGKGLEWMGIIYPGDSDTRYSPSFQGQVTISADKSISTAYLQWSSLKASDTAMYYCARPYATDTRIWGQGTMVTVSSAPQAKSSGSGSESKVDQAVVTQEPSLTVSPGGTVTLTCASSTGAVTSGNYPNWFQQRPGQPPRALIYSTSNKHSWTPARFSGSLLGGKAALTLSGAQPEDEAEYYCRLSYDLARPVFGGGTKLTVLG
Solution: 7.06
